// values below are reported kon
Biological target: human ErbB2 ECD-myc/His fusion protein (human)
Assay: SPR, medium resolution Biacore 2000; mAb captured on goat anti-human IgG, ErbB2(ECD)-cMyc/His injected; 1:1 fit
Answer format: numeric, M⁻¹ s⁻¹ implied, no suffix.

monoclonal antibody 1.100.1 (antibody, V domains shown) VH: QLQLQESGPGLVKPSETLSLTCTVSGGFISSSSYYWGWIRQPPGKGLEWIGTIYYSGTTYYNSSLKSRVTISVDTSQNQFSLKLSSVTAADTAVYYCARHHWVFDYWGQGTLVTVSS VL: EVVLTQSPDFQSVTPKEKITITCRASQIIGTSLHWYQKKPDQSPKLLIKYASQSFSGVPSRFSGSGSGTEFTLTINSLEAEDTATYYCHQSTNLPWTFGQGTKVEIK = 104000

// moving on: another record for kon
Q) So what does the record say about kon for monoclonal antibody 1.18.1 (antibody, V domains shown) VH: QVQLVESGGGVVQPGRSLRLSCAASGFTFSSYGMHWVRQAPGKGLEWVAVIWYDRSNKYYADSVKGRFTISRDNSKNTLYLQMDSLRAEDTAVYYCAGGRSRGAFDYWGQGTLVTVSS VL: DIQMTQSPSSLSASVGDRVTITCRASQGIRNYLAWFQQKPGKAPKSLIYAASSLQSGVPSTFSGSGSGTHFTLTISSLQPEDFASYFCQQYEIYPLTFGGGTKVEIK ?
A) 100000
